Reported AC50 values are given for each entry in this list.
- target: PKR WT (Homo sapiens, UniProt P30613)
- Sequence (P30613 whole entry): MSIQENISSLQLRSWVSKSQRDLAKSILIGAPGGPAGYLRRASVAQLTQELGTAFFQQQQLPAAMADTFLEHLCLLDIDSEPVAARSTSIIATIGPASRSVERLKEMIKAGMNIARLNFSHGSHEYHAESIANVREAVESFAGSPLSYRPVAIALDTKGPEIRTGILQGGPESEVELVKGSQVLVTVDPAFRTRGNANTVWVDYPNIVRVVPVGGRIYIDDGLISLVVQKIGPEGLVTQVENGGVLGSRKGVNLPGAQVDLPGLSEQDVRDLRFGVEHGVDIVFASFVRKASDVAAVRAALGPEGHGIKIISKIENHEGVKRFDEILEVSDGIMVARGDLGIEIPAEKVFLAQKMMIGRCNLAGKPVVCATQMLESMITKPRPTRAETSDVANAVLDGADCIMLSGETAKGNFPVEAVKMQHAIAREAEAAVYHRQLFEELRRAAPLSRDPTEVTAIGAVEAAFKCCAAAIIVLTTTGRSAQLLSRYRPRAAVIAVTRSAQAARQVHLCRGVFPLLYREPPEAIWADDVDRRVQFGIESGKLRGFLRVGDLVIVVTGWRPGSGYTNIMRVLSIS
- assayExplanation: PKR WT enzymatic AC50 assay
- Type: biochemical
- conditionsUsed: wild type PKR

For CC(C)CC1(O)CCN(C(=O)c2ccc(NS(=O)(=O)c3csc4cccnc34)cc2)CC1 [Compound 269] , what is its reported AC50? 101 to 1000 nM

Next up: O=C(c1ccc(NS(=O)(=O)c2cccc3cccnc23)cc1)N1CCC(O)(c2ccncc2)CC1 [Compound 206] < 100 nM

Next up: CC(C)CC1(CO)CCN(C(=O)c2ccc(NS(=O)(=O)c3cccc4cccnc34)cc2)CC1 [Compound 172] < 100 nM

Now look at this entry.
For CC(C)(C)CC1(O)CCN(C(=O)c2ccc(NS(=O)(=O)c3cccc4nccnc34)cc2)CC1 [Compound 130] , what is its reported AC50? < 100 nM

====

Reported AC50 values are given for each entry in this list.
- target: PKR R532W (Homo sapiens, UniProt P30613, R532W)
- Sequence (P30613 whole entry R532W): as the sequence (P30613 whole entry) above, with R532W counted along it
- assayExplanation: PKR Mutant Assay, AC50 against PKR R532W
- Type: biochemical
- conditionsUsed: mutant PKR R532W enzyme

Look over these answered cases.
What reported AC50 corresponds to O=C(c1ccc(NS(=O)(=O)c2cccc3cccnc23)cc1)N1CCC(O)(c2cccc(F)c2)CC1 [Compound 142] on PKR R532W (Homo sapiens, UniProt P30613, R532W)? < 100 nM

Next up: CC(C)CC1(O)CCN(C(=O)c2ccc(NS(=O)(=O)c3cccc4c(O)ncnc34)cc2)CC1 [Compound 388] < 100 nM

Next up: O=C(c1ccc(NS(=O)(=O)c2cccc3cccnc23)c(OC(F)F)c1)N1CCC(O)(c2ccccc2Cl)CC1 [Compound 263] 101 to 1000 nM

Next up: CC(C)CC1(O)CCN(C(=O)c2ccc(NS(=O)(=O)c3cccc4cccnc34)c(C(F)F)c2)CC1 [Compound 258] 101 to 1000 nM

***
What reported AC50 corresponds to CC(C)CC1(O)CCN(C(=O)c2ccc(NS(=O)(=O)c3cccc4cccnc34)cc2)CC1 [Compound 140] on PKR R532W (Homo sapiens, UniProt P30613, R532W)? < 100 nM

Next up: CC(CC1(O)CCN(C(=O)c2ccc(NS(=O)(=O)c3cccc4scnc34)cc2)CC1)C(F)F (stereo not drawn) [Compound 405] 101 to 1000 nM

Next up: C=C(C)CC1(O)CCN(C(=O)c2ccc(NS(=O)(=O)c3cccc4scnc34)cc2)CC1 [Compound 181] < 100 nM

Next up: O=C(c1ccc(NS(=O)(=O)c2cccc3nonc23)cc1)N1CCC(O)(Cc2ccccc2)CC1 [Compound 310] 1010 to 10000 nM

Next up: CC(O)CC1(O)CCN(C(=O)c2ccc(NS(=O)(=O)c3cccc4cccnc34)cc2)CC1 (stereo not drawn) [Compound 275] 101 to 1000 nM

====

Reported AC50 values are given for each entry in this list.
- target: PKR R532W (Homo sapiens, UniProt P30613, R532W)
- assayExplanation: PKR Mutant Assay, AC50 against PKR R532W
- Assay type: biochemical
- conditionsUsed: mutant PKR R532W enzyme

Look over these answered cases.
For O=C(c1ccc(NS(=O)(=O)c2cccc(OC(F)(F)F)c2)cc1)N1CCC(O)(Cc2ccccc2)CC1 [Compound 307] , what is its reported AC50? 1010 to 10000 nM

Next up: O=C(c1ccc(NS(=O)(=O)c2c[nH]c3cccnc23)cc1)N1CCC(O)(c2ccccc2Cl)CC1 [Compound 316] > 10000 nM

Next up: O=C(c1ccc(NS(=O)(=O)c2cccc3cccnc23)c(Cl)c1)N1CCC(O)(c2ccccc2Cl)CC1 [Compound 222] < 100 nM

***
For O=C(c1ccc(NS(=O)(=O)c2ccc(F)c3nccnc23)cc1)N1CCC(O)(c2ccccc2Cl)CC1 [Compound 234] , what is its reported AC50? 101 to 1000 nM

Next up: Cn1cc(CC2(O)CCN(C(=O)c3ccc(NS(=O)(=O)c4cccc5scnc45)cc3)CC2)cn1 [Compound 434] < 100 nM

Next up: O=C(c1ccc(NS(=O)(=O)c2cccc3cccnc23)cc1F)N1CCC(O)(Cc2ccccc2)CC1 [Compound 115] < 100 nM

Next up: CC(C)CC1(CO)CCN(C(=O)c2ccc(NS(=O)(=O)c3cccc4cccnc34)cc2)CC1 [Compound 172] < 100 nM

Next up: O=C(c1ccc(NS(=O)(=O)c2cccc3c(O)ncnc23)cc1)N1CCC(O)(c2cccc(F)c2F)CC1 [Compound 428] < 100 nM

Next up: O=C(c1ccc(NS(=O)(=O)c2cccc3cccnc23)c(F)c1)N1CCC(O)(c2ccccc2Cl)CC1 [Compound 143] < 100 nM

Next up: Cc1nc(F)ccc1C1(O)CCN(C(=O)c2ccc(NS(=O)(=O)c3cccc4cccnc34)cc2)CC1 [Compound 129] < 100 nM

Next up: O=C(c1ccc(NS(=O)(=O)c2cccc3cccnc23)cc1OC(F)(F)F)N1CCC(O)(c2ccccc2Cl)CC1 [Compound 136] < 100 nM

Next up: CC(F)(F)CCC1(O)CCN(C(=O)c2ccc(NS(=O)(=O)c3cccc4nccnc34)cc2OC(F)F)CC1 [Compound 436] < 100 nM

Next up: CC(C)(F)CC1(O)CCN(C(=O)c2ccc(NS(=O)(=O)c3cccc4scnc34)cc2)CC1 [Compound 403] < 100 nM

Next up: O=C(c1ccc(NS(=O)(=O)c2cccc3ccc(F)nc23)cc1)N1CCC(O)(c2ccccc2Cl)CC1 [Compound 224] < 100 nM

Next up: CCOCC1(O)CCN(C(=O)c2ccc(NS(=O)(=O)c3cccc4cccnc34)cc2)CC1 [Compound 246] < 100 nM

Values from patent US9108921B2
